assayed.system: somatostatin receptor type 2 (SSTR2) (UniProt P30874 1-369)
Sequence (P30874 whole entry): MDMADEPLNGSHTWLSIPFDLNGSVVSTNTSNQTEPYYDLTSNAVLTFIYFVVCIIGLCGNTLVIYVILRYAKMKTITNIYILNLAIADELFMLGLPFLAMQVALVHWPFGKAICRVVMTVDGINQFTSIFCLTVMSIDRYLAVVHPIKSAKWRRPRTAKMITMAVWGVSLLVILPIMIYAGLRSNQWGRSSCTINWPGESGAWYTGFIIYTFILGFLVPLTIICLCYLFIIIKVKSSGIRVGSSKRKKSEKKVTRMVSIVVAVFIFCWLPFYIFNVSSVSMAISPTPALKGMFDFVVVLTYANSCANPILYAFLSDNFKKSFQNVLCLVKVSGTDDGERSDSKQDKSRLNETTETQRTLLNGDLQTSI
measurement.description: cell-based or functional assay
Starred links: 1 amine or outer side, 2 acyl side, 3 side chain; linkers in the order of their positions; H or OH if unused. Positions of bridges follow the written chain, without caps; N, C: chain ends. Non-standard residues stand in square brackets, D forms with d. *: point of attachment. dPhe(4-phenylureido) = D-4-(phenylureido)Phe, O=C(Nc1ccccc1)Nc1ccc(C[C@@H](N[*:1])C(=O)[*:2])cc1; dPhe(4-CONH2) = NC(=O)c1ccc(C[C@@H](N)C(=O)O)cc1; Phe(4-Cl) = N[C@@H](Cc1ccc(Cl)cc1)C(=O)O; Hexanoyl = CCCCCC(=O)*
measurement.kind: IC50 (PathHunter β-Arrestin, antagonist mode) (nM)

Use the examples below as a reference point.
Hexanoyl-[Phe(4-Cl)][dC]Y[dPhe(4-CONH2)]K(Me)TC[dY]-NH2 (disulfide 2-7; SMILES CCCCCC(=O)N[C@@H](Cc1ccc(Cl)cc1)C(=O)N[C@@H]1CSSC[C@@H](C(=O)N[C@H](Cc2ccc(O)cc2)C(N)=O)NC(=O)[C@H]([C@@H](C)O)NC(=O)[C@H](CCCCNC)NC(=O)[C@@H](Cc2ccc(C(N)=O)cc2)NC(=O)[C@H](Cc2ccc(O)cc2)NC1=O) [Compound 56: CH3(CH2)4(CO)-Cpa-cyclo[D-Cys-Tyr-D-Phe(4-carbamoyl)-Lys(Nε-Me)-Thr-Cys]-D-Tyr-NH2] :: 1.6
H-[Phe(4-Cl)][dC]Y[dPhe(4-phenylureido)]K(Me)TC[dY]-NH2 (disulfide 2-7; SMILES CNCCCC[C@@H]1NC(=O)[C@@H](Cc2ccc(NC(=O)Nc3ccccc3)cc2)NC(=O)[C@H](Cc2ccc(O)cc2)NC(=O)[C@H](NC(=O)[C@@H](N)Cc2ccc(Cl)cc2)CSSC[C@@H](C(=O)N[C@H](Cc2ccc(O)cc2)C(N)=O)NC(=O)[C@H]([C@@H](C)O)NC1=O) [Compound 25: H-Cpa-cyclo[D-Cys-Tyr-D-Phe(4-phenylureido)-Lys(Nε-Me)-Thr-Cys]-D-Tyr-NH2] :: 2.32
H-[Phe(4-Cl)][dC]Y[dPhe(4-CONH2)]K(Me)TC[dY]-NH2 (disulfide 2-7; SMILES CNCCCC[C@@H]1NC(=O)[C@@H](Cc2ccc(C(N)=O)cc2)NC(=O)[C@H](Cc2ccc(O)cc2)NC(=O)[C@H](NC(=O)[C@@H](N)Cc2ccc(Cl)cc2)CSSC[C@@H](C(=O)N[C@H](Cc2ccc(O)cc2)C(N)=O)NC(=O)[C@H]([C@@H](C)O)NC1=O) [Compound 24: H-Cpa-cyclo[D-Cys-Tyr-D-Phe(4-carbamoyl)-Lys(Nε-Me)-Thr-Cys]-D-Tyr-NH2] :: 0.96
{2‑furoyl}-[Phe(4-Cl)][dC]Y[dPhe(4-CONH2)]K(Me)TC[dY]-NH2 (disulfide 2-7) [Compound 57: (Furan-2-carboxy)-Cpa-cyclo[D-Cys-Tyr-D-Phe(4-carbamoyl)-Lys(Nε-Me)-Thr-Cys]-D-Tyr-NH2] :: 3.65

A = {3,3‑dimethylbutanoyl}-[Phe(4-Cl)][dC]Y[dPhe(4-CONH2)]K(Me)TC[dY]-NH2 (disulfide 2-7) [Compound 52: t-BuCH2(CO)-Cpa-cyclo[D-Cys-Tyr-D-Phe(4-carbamoyl)-Lys(Nε-Me)-Thr-Cys]-D-Tyr-NH2]
B = picolinoyl-[Phe(4-Cl)][dC]Y[dPhe(4-CONH2)]K(Me)TC[dY]-NH2 (disulfide 2-7) [Compound 53: 2-Pyridyl(CO)-Cpa-cyclo[D-Cys-Tyr-D-Phe(4-carbamoyl)-Lys(Nε-Me)-Thr-Cys]-D-Tyr-NH2]
C = H-[Phe(4-Cl)][dC]Y[dTyr(O-2-(4-morpholinyl)ethyl)]KTC[dY]-NH2 (disulfide 2-7) [Compound 13: H-Cpa-cyclo[DCys-Tyr-D-(2-(4-morpholinyl)ethyl)Tyr-Lys-Thr-Cys]-DTyr-NH2]
Rank the 3 binders: largest IC50 (PathHunter β-Arrestin, antagonist mode) first, smallest last. State the ranking by listing the labels in the requested order. C, B, A
(C: 334 nM, B: 4.28 nM, A: 1.73 nM)
